// data source = ChEMBL document CHEMBL3108748

- assay_target: Telomerase reverse transcriptase (Homo sapiens)
- assay_details: Inhibition of human telomerase activity in human Jurkat cells by TRAP assay
- Type: cell-based
measured_quantity: IC50 (nM)
Give just the numeric value; nM need not be written.

Prompt: Look up IC50: "COc1ccc2c(c1)CC[C@@H]1[C@@H]2CC[C@]2(C)[C@@H](NCCCCCCN3C(=O)C=CC3=O)CC[C@@H]12"
Response: 200

* * *

- assay_target: Telomerase reverse transcriptase (Homo sapiens, UniProt O14746)
- Sequence (O14746 whole entry): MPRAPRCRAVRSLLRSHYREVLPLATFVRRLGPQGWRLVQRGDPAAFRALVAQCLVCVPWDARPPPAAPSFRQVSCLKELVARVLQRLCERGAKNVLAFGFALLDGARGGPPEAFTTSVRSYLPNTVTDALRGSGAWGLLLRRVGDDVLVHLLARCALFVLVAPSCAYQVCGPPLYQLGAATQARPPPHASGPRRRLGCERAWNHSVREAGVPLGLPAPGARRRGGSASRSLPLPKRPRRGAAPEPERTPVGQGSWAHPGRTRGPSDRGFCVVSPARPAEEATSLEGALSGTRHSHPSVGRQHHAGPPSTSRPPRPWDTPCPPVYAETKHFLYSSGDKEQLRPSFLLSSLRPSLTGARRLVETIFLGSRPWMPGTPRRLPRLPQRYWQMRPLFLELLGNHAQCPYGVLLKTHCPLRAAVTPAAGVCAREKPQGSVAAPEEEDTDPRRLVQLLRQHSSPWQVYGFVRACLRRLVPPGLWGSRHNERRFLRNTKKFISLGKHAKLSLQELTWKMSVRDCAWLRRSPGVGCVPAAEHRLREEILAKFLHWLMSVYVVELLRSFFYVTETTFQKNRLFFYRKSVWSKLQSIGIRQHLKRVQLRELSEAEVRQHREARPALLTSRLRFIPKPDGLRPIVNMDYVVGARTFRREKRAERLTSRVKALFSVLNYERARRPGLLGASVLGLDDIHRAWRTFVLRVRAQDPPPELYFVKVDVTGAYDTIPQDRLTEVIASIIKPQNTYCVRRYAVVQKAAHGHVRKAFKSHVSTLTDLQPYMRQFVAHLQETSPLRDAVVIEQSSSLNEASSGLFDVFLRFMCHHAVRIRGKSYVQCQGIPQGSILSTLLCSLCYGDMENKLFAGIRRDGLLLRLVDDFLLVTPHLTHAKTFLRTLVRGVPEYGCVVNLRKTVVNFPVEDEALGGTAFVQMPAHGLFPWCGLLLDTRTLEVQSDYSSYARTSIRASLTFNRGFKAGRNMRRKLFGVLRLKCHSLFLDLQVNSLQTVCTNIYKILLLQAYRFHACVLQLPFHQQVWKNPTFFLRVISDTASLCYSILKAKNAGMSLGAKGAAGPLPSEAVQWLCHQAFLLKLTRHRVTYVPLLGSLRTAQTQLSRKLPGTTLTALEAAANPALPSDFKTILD
- assay_details: Inhibition of human telomerase activity after 8 mins by SYBR Green staining-based TRAP assay
measured_quantity: pIC50
// field semantics: pIC50 = negative decimal log of concentration (mol/L)

Prompt: # query: pIC50 | item "O=[N+]([O-])/C=C/c1cccc(Oc2cc(Cl)cc(Cl)c2)c1" | system: Telomerase reverse transcriptase (Homo sapiens, UniProt O14746)
Response: 6.40
